Measured values drawn from ChEMBL document CHEMBL1153083 for this set.

Test: Toxicity against african green monkey Vero cells after 48 hrs by neutral red assay
Type: cell-based
Settings: chlorocebus sabaeus, Vero cells; read-out: TC50
Consider the following compounds; for each one, report its CC50 at 48 h.
One number for each entry, in µM.

>>> result("C[C@H]1[C@@H](OCC(CO[C@H]2O[C@@H]3O[C@@]4(C)CC[C@H]5[C@H](C)CC[C@@H]([C@H]2C)[C@@]35OO4)OS(C)(=O)=O)O[C@@H]2O[C@@]3(C)CC[C@H]4[C@H](C)CC[C@@H]1[C@@]24OO3 (some centres not stated)")
2.13

Continue with the compound presented below.
GET /value?item= C[C@H]1[C@@H](OCC(O)CO[C@H]2O[C@@H]3O[C@@]4(C)CC[C@H]5[C@H](C)CC[C@@H]([C@H]2C)[C@@]35OO4)O[C@@H]2O[C@@]3(C)CC[C@H]4[C@H](C)CC[C@@H]1[C@@]24OO3 (some centres not stated) &field=CC50 at 48 h returns 5.6

###

Would you kindly list CC50 at 48 h for each of these compounds?
Assay: Toxicity against pig LLC-PK11 cells after 48 hrs by neutral red assay
Type: cell-based, Sus scrofa
Conditions: LLC-PK11 cells, read-out: TC50
Write down the value, and be sure its unit follows.

Known results for compounds:
>>> result("C[C@H]1[C@@H](OCC[C@H](O)CO[C@H]2O[C@@H]3O[C@@]4(C)CC[C@H]5[C@H](C)CC[C@@H]([C@H]2C)[C@@]35OO4)O[C@@H]2O[C@@]3(C)CC[C@H]4[C@H](C)CC[C@@H]1[C@@]24OO3")
"100 nM"
>>> result("C[C@H]1[C@@H](OCC(=O)CO[C@H]2O[C@@H]3O[C@@]4(C)CC[C@H]5[C@H](C)CC[C@@H]([C@H]2C)[C@@]35OO4)O[C@@H]2O[C@@]3(C)CC[C@H]4[C@H](C)CC[C@@H]1[C@@]24OO3")
"100 nM"
>>> result("C[C@H]1[C@@H](OCC(O)CO[C@H]2O[C@@H]3O[C@@]4(C)CC[C@H]5[C@H](C)CC[C@@H]([C@H]2C)[C@@]35OO4)O[C@@H]2O[C@@]3(C)CC[C@H]4[C@H](C)CC[C@@H]1[C@@]24OO3 (some centres undefined)")
"150 nM"

Data point: C[C@H]1[C@@H](OCC[C@@H](CO[C@H]2O[C@@H]3O[C@@]4(C)CC[C@H]5[C@H](C)CC[C@@H]([C@H]2C)[C@@]35OO4)O[C@H]2O[C@@H]3O[C@@]4(C)CC[C@H]5[C@H](C)CC[C@@H]([C@H]2C)[C@@]35OO4)O[C@@H]2O[C@@]3(C)CC[C@H]4[C@H](C)CC[C@@H]1[C@@]24OO3 ; CC50 at 48 h = 70 nM

###

Tested on: SK-MEL
Assay: Cytotoxicity against human SK-MEL cells after 48 hrs by neutral red assay
Assay type: functional, cell-based
Settings: sk-mel
metric: IC50

Examples from the recorded data:
>>> result("C[C@H]1[C@@H](OC[C@@H](O)[C@@H](O)CO[C@H]2O[C@@H]3O[C@@]4(C)CC[C@H]5[C@H](C)CC[C@@H]([C@H]2C)[C@@]35OO4)O[C@@H]2O[C@@]3(C)CC[C@H]4[C@H](C)CC[C@@H]1[C@@]24OO3 (relative stereo)")
"Not Active"
>>> result("C[C@H]1[C@@H](OC/C=C\\CO)O[C@@H]2O[C@@]3(C)CC[C@H]4[C@H](C)CC[C@@H]1[C@@]24OO3")
"Not Active"
>>> result("C[C@H]1[C@@H](OCc2cc(O)cc(O)c2)O[C@@H]2O[C@@]3(C)CC[C@H]4[C@H](C)CC[C@@H]1[C@@]24OO3")
"Not Active"
>>> result("C[C@H]1[C@@H](O[C@@H](CO[C@H]2O[C@@H]3O[C@@]4(C)CC[C@H]5[C@H](C)CC[C@@H]([C@H]2C)[C@@]35OO4)[C@H](O)CO)O[C@@H]2O[C@@]3(C)CC[C@H]4[C@H](C)CC[C@@H]1[C@@]24OO3")
"Not Active"
>>> result("C[C@H]1[C@@H](OCC(CO[C@H]2O[C@@H]3O[C@@]4(C)CC[C@H]5[C@H](C)CC[C@@H]([C@H]2C)[C@@]35OO4)OS(C)(=O)=O)O[C@@H]2O[C@@]3(C)CC[C@H]4[C@H](C)CC[C@@H]1[C@@]24OO3 (some centres not stated)")
"Not Active"

Please report IC50 for every entry that follows.
1. C[C@H]1[C@@H](OCc2cc(O)cc(O[C@H]3O[C@@H]4O[C@@]5(C)CC[C@H]6[C@H](C)CC[C@@H]([C@H]3C)[C@@]46OO5)c2)O[C@@H]2O[C@@]3(C)CC[C@H]4[C@H](C)CC[C@@H]1[C@@]24OO3
2. C[C@H]1[C@@H](OCC(=O)CO)O[C@@H]2O[C@@]3(C)CC[C@H]4[C@H](C)CC[C@@H]1[C@@]24OO3

1. Not Active
2. Not Active

###

Experiment: Toxicity against pig LLC-PK11 cells after 48 hrs by neutral red assay
Format: cell-based, Sus scrofa
Conditions: llc-pk11, 48 h
metric: TC50

A selection of reference data follows.
>>> result("C[C@H]1[C@@H](OCC(CO[C@H]2O[C@@H]3O[C@@]4(C)CC[C@H]5[C@H](C)CC[C@@H]([C@H]2C)[C@@]35OO4)OS(C)(=O)=O)O[C@@H]2O[C@@]3(C)CC[C@H]4[C@H](C)CC[C@@H]1[C@@]24OO3 (some centres not stated)")
"Non-toxic"
>>> result("C[C@H]1[C@@H](OC/C=C\\CO[C@H]2O[C@@H]3O[C@@]4(C)CC[C@H]5[C@H](C)CC[C@@H]([C@H]2C)[C@@]35OO4)O[C@@H]2O[C@@]3(C)CC[C@H]4[C@H](C)CC[C@@H]1[C@@]24OO3")
"Non-toxic"
>>> result("C[C@H]1[C@@H](Oc2cccc(N[C@@H]3[C@H](C)O[C@@H]4O[C@@]5(C)CC[C@H]6[C@H](C)CC[C@@H]3[C@@]46OO5)c2)O[C@@H]2O[C@@]3(C)CC[C@H]4[C@H](C)CC[C@@H]1[C@@]24OO3")
"Not Active"
>>> result("C[C@H]1[C@@H](OC[C@@H](O)[C@@H](O)CO[C@H]2O[C@@H]3O[C@@]4(C)CC[C@H]5[C@H](C)CC[C@@H]([C@H]2C)[C@@]35OO4)O[C@@H]2O[C@@]3(C)CC[C@H]4[C@H](C)CC[C@@H]1[C@@]24OO3 (relative stereo)")
"Not Active"
>>> result("C[C@H]1[C@@H](OC/C=C\\CO)O[C@@H]2O[C@@]3(C)CC[C@H]4[C@H](C)CC[C@@H]1[C@@]24OO3")
"Not Active"
>>> result("C[C@H]1[C@@H](OCc2cc(O)cc(O[C@H]3O[C@@H]4O[C@@]5(C)CC[C@H]6[C@H](C)CC[C@@H]([C@H]3C)[C@@]46OO5)c2)O[C@@H]2O[C@@]3(C)CC[C@H]4[C@H](C)CC[C@@H]1[C@@]24OO3")
"Not Active"

# evaluate next
get_value(item= C[C@H]1[C@@H](O[C@@H](CO[C@H]2O[C@@H]3O[C@@]4(C)CC[C@H]5[C@H](C)CC[C@@H]([C@H]2C)[C@@]35OO4)[C@H](O)CO)O[C@@H]2O[C@@]3(C)CC[C@H]4[C@H](C)CC[C@@H]1[C@@]24OO3 , readout=TC50) returns Not Active

###

Provide the reported CC50 of each item.
Test: Toxicity against african green monkey Vero cells
Format: cell-based
Conditions: chlorocebus sabaeus

Record excerpt, results attached:
>>> result("C[C@H]1[C@@H](OCC[C@@H](CO[C@H]2O[C@@H]3O[C@@]4(C)CC[C@H]5[C@H](C)CC[C@@H]([C@H]2C)[C@@]35OO4)O[C@H]2O[C@@H]3O[C@@]4(C)CC[C@H]5[C@H](C)CC[C@@H]([C@H]2C)[C@@]35OO4)O[C@@H]2O[C@@]3(C)CC[C@H]4[C@H](C)CC[C@@H]1[C@@]24OO3")
"5.25 µM"
>>> result("CC1=CO[C@@H]2O[C@]3(C)CC[C@H]4[C@H](C)CC[C@@H]1[C@@]24OO3 [ANHYDRODIHYDROARTEMISININ]")
"> 1.79 µM"
>>> result("C[C@H]1[C@@H](OCC[C@H](O)CO[C@H]2O[C@@H]3O[C@@]4(C)CC[C@H]5[C@H](C)CC[C@@H]([C@H]2C)[C@@]35OO4)O[C@@H]2O[C@@]3(C)CC[C@H]4[C@H](C)CC[C@@H]1[C@@]24OO3")
"> 7.45 µM"

Respectfully, I request CC50 for each entry included below.
1. C[C@H]1[C@@H](OC[C@@H](O)[C@@H](O)CO[C@H]2O[C@@H]3O[C@@]4(C)CC[C@H]5[C@H](C)CC[C@@H]([C@H]2C)[C@@]35OO4)O[C@@H]2O[C@@]3(C)CC[C@H]4[C@H](C)CC[C@@H]1[C@@]24OO3 (relative stereo)
2. C[C@H]1[C@@H](OCc2cc(O)cc(O)c2)O[C@@H]2O[C@@]3(C)CC[C@H]4[C@H](C)CC[C@@H]1[C@@]24OO3
3. C[C@H]1[C@@H](OCc2cc(O)cc(O[C@H]3O[C@@H]4O[C@@]5(C)CC[C@H]6[C@H](C)CC[C@@H]([C@H]3C)[C@@]46OO5)c2)O[C@@H]2O[C@@]3(C)CC[C@H]4[C@H](C)CC[C@@H]1[C@@]24OO3
4. C[C@H]1[C@@H](OC/C=C\CO)O[C@@H]2O[C@@]3(C)CC[C@H]4[C@H](C)CC[C@@H]1[C@@]24OO3
5. C[C@H]1[C@@H](O)O[C@@H]2O[C@@]3(C)CC[C@H]4[C@H](C)CC[C@@H]1[C@@]24OO3 [ARTENIMOL]

1. > 7.26 µM
2. > 11.7 µM
3. > 7.07 µM
4. > 13.4 µM
5. 1.41 µM
